Lab note: IC50 readings collected with JAK1 (Homo sapiens, UniProt P23458) for the following compounds.
Sequence (P23458 whole entry, species assumed): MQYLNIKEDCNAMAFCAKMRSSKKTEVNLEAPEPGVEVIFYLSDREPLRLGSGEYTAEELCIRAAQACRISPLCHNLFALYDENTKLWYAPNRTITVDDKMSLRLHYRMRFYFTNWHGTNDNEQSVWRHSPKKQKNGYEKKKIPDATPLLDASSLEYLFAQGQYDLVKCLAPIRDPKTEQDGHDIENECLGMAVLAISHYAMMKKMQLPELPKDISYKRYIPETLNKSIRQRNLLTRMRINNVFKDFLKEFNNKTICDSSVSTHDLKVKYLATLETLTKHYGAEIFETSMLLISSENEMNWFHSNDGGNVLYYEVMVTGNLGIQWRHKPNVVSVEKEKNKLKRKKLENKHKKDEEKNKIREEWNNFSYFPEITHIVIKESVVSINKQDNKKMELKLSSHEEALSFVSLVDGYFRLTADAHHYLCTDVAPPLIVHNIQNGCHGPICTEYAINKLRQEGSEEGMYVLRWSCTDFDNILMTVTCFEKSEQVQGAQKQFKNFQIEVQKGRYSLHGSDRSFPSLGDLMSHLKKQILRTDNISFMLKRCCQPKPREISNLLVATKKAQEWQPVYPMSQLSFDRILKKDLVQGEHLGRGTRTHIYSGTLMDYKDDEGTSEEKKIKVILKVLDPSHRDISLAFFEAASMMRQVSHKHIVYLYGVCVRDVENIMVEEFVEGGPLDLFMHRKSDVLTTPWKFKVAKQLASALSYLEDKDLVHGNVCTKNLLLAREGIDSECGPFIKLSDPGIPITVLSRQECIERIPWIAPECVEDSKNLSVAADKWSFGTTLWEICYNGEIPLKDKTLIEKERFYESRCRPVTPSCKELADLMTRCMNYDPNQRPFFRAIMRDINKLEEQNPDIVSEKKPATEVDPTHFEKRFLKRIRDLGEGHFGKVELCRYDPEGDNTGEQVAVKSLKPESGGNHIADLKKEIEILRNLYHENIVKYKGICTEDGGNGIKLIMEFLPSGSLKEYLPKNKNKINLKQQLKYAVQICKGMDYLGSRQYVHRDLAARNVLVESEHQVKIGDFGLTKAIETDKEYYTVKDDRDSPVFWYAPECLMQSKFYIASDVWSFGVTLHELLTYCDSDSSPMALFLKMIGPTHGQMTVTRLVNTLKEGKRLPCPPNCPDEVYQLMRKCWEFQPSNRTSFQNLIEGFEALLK
Property measured: IC50

[[record]]
smiles_text = "COc1cccc(NC(=O)N2CCC3(CCC(N(C)c4ncnc5[nH]ccc45)CC3)CC2)n1"
test_value = "10 to 100 nM"

[[record]]
smiles_text = "Cc1cc(C(=O)N2CC3(CC(N(C)c4ncnc5[nH]ccc45)C3)C2)ccc1C#N"
test_value = "10 to 100 nM"

[[record]]
smiles_text = "CN(c1ncnc2[nH]ccc12)C1CC2(C1)CN(C(=O)Cc1c[nH]c3ccccc13)C2"
test_value = "100 to 1000 nM"

[[record]]
smiles_text = "C#Cc1ccc(C(=O)N2CC3(CC(N(C)c4ncnc5[nH]ccc45)C3)C2)cc1"
test_value = "≤ 10 nM"

[[record]]
smiles_text = "Cc1cnc(NC(=O)N2CCC3(CCC(N(C)c4ncnc5[nH]ccc45)CC3)CC2)s1"
test_value = "100 to 1000 nM"

[[record]]
smiles_text = "COc1nsc(NC(=O)N2CC3(CC(N(C)c4ncnc5[nH]ccc45)C3)C2)n1"
test_value = "≤ 10 nM"

[[record]]
smiles_text = "COc1nsc(NC(=O)N2CCC3(CCC(N(C)c4ncnc5[nH]ccc45)CC3)CC2)n1"
test_value = "≤ 10 nM"

[[record]]
smiles_text = "CC(C)OC(=O)N1CCC2(CCC(N(C)c3ncnc4c3CCN4)CC2)CC1"
test_value = "10 to 100 nM"

[[record]]
smiles_text = "CC(=O)N1CCC2(CCC(N(C)c3ncnc4[nH]ccc34)CC2)CC1"
test_value = "10 to 100 nM"

[[record]]
smiles_text = "CN(c1ncnc2[nH]ccc12)C1CC2(C1)CN(C(=O)c1cc[nH]n1)C2"
test_value = "1000 to 10000 nM"

[[record]]
smiles_text = "CN(c1ncnc2[nH]ccc12)C1CC2(C1)CN(C(=O)c1cccc(C(F)(F)F)c1)C2"
test_value = "100 to 1000 nM"

[[record]]
smiles_text = "CN(c1ncnc2[nH]ccc12)C1CC2(C1)CN(C(=O)c1ccc(Cl)cn1)C2"
test_value = "10 to 100 nM"

[[record]]
smiles_text = "[2H]C([2H])([2H])N(c1ncnc2[nH]ccc12)C1CC2(C1)CN(C(=O)c1ccc(C#N)c(F)c1)C2"
test_value = "10 to 100 nM"

[[record]]
smiles_text = "CN(c1ncnc2[nH]ccc12)C1CCC2(CC1)CCN(C(=O)COc1ccccc1)CC2"
test_value = "≤ 10 nM"

[[record]]
smiles_text = "CCOC(=O)N1CC2(CC(N(C)c3ncnc4[nH]ccc34)C2)C1"
test_value = "100 to 1000 nM"

[[record]]
smiles_text = "Cc1cc(C(=O)N2CC3(CC(N(C)c4ncnc5[nH]ccc45)C3)C2)c(F)cc1C#N"
test_value = "10 to 100 nM"

[[record]]
smiles_text = "C#Cc1ccc(C(=O)N2CC3(CC(N(C)c4ncnc5[nH]ccc45)C3)C2)nc1"
test_value = "10 to 100 nM"


----------
# maps each entry to its IC50
Target: UniProt:P52333
Sequence (P52333 1-1124): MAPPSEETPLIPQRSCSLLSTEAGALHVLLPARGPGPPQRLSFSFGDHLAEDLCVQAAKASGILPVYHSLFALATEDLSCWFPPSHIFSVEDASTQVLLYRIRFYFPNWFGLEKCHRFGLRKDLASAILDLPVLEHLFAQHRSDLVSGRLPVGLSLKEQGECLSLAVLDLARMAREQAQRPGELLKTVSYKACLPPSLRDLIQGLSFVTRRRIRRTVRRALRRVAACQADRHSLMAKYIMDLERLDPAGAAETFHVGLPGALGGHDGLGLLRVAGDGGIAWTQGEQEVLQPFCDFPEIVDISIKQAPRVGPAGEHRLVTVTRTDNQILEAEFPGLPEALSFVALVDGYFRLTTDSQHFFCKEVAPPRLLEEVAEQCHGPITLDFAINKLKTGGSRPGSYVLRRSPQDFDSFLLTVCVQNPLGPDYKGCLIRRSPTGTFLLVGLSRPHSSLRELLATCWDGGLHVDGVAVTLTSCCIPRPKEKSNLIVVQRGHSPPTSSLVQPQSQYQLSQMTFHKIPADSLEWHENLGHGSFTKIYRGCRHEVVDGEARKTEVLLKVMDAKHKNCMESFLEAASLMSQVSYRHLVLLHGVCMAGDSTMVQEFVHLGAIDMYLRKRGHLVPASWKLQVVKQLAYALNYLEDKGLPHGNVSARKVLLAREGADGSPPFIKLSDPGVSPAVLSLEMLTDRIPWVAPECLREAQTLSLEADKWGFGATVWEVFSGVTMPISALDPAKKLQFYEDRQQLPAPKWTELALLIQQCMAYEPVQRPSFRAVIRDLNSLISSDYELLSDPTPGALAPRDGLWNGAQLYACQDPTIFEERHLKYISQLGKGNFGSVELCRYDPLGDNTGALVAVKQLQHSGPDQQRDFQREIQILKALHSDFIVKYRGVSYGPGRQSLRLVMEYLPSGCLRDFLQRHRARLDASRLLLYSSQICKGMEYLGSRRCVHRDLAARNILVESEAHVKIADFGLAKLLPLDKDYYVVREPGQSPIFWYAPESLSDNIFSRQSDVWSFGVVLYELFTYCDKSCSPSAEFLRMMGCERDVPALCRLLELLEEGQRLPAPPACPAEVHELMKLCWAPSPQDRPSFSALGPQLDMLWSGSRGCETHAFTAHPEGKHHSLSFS
Property measured: IC50

[[record]]
smiles_text = "CN(c1ncnc2[nH]ccc12)C1CCC2(CC1)CCN(C(=O)c1csc3ccccc13)CC2"
target_or_system = "UniProt:P52333"
property_measured = "IC50"
test_value = "0.1 to 1 µM"

[[record]]
smiles_text = "CN(c1ncnc2[nH]ccc12)C1CCC2(CC1)CCN(C(=O)c1cccc(C(F)(F)F)c1)CC2"
target_or_system = "UniProt:P52333"
property_measured = "IC50"
test_value = "1 to 10 µM"

[[record]]
smiles_text = "CN(c1ncnc2[nH]ccc12)C1CC2(C1)CN(C(=O)c1ccc(I)cc1)C2"
target_or_system = "UniProt:P52333"
property_measured = "IC50"
test_value = "1 to 10 µM"

[[record]]
smiles_text = "CCOC(=O)N1CC2(CC(N(C)c3ncnc4[nH]ccc34)C2)C1"
target_or_system = "UniProt:P52333"
property_measured = "IC50"
test_value = "1 to 10 µM"

[[record]]
smiles_text = "CN(c1ncnc2[nH]ccc12)C1CCC2(CC1)CCN(C(=O)C1(C#N)CC1)CC2"
target_or_system = "UniProt:P52333"
property_measured = "IC50"
test_value = "1 to 10 µM"

[[record]]
smiles_text = "C#Cc1ccc(C(=O)N2CC3(CC(N(C)c4ncnc5[nH]ccc45)C3)C2)cc1Cl"
target_or_system = "UniProt:P52333"
property_measured = "IC50"
test_value = "≥ 10 µM"

[[record]]
smiles_text = "Cc1cc(C#N)ccc1C(=O)N1CC2(CC(N(C)c3ncnc4[nH]ccc34)C2)C1"
target_or_system = "UniProt:P52333"
property_measured = "IC50"
test_value = "≥ 10 µM"

